# MEASUREMENT_DESCRIPTION: Brain penetration activity test in rats
# Type: in vivo
# RECORDED_CONDITIONS: male, Sprague Dawley, rat, brain tissue homogenate / plasma, po, 5 mg/kg, AUCbrain/AUCplasma, samples at 1, 2, 4 and 8 hours
MEASURED_ENDPOINT: Kp at 8 h
One number for each entry.

[
  {
    "COMPOUND": "COc1ccc(F)cc1C(=O)NCc1ccc(-c2nc(C34CCC(C(=O)O)(CC3)CC4)n3ncnc(N)c23)cc1 [Compound A]",
    "Kp at 8 h": 0.0355
  }
]

Now turn to the next compound.
Record COc1ccc(F)cc1C(=O)NCc1ccc(-c2nc(C34CCC(C(=O)N5CCOCC5)(CC3)CC4)n3ncnc(N)c23)cc1 [Compound B] , field Kp at 8 h: 0.0315

* * *

# SYSTEM_TESTED: human recombinant BTK C481S protein (Homo sapiens, UniProt Q06187, C481S)
# Sequence (Q06187 whole entry C481S): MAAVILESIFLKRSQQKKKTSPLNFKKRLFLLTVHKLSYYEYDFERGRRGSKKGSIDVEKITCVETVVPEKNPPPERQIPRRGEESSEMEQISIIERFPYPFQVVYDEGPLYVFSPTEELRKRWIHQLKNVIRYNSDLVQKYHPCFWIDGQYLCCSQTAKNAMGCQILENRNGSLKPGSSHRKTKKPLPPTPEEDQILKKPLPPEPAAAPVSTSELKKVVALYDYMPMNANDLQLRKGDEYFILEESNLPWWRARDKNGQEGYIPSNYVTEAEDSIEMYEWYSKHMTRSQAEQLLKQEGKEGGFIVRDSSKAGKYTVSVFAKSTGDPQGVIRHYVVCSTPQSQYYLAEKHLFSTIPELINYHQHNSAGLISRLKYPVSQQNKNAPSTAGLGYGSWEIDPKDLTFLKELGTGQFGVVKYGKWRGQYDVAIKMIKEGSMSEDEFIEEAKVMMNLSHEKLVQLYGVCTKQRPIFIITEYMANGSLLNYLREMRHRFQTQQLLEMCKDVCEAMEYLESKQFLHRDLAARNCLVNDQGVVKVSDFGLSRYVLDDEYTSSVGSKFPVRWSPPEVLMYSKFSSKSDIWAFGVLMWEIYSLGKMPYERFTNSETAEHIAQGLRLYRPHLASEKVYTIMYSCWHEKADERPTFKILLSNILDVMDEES
# MEASUREMENT_DESCRIPTION: BTK C481S activity inhibition assay (HTRF kinase assay)
# RECORDED_CONDITIONS: 35 μM ATP
MEASURED_ENDPOINT: pIC50
Answers are plain numbers, as −log10 of the molar value.

[
  {
    "SMILES_RECORD": "COc1ccc(F)cc1C(=O)NCc1ccc(-c2nc(C34CCC(C(=O)O)(CC3)CC4)n3ncnc(N)c23)cc1",
    "SYSTEM_TESTED": "human recombinant BTK C481S protein (Homo sapiens, UniProt Q06187, C481S)",
    "RECORDED_NUMBER": 8.89
  }
]

Note: attention shifts to another entry.
Field pIC50 (entry `COc1ccc(F)cc1C(=O)NCc1ccc(-c2nc(C34CCC(C(=O)N5CCOCC5)(CC3)CC4)n3ncnc(N)c23)cc1` ) reads 8.92

* * *

# SYSTEM_TESTED: human-derived recombinant BTK protein (Homo sapiens, UniProt Q06187)
# Sequence (Q06187 whole entry): as the sequence (Q06187 whole entry C481S) above, with S481C counted along it
# MEASUREMENT_DESCRIPTION: BTK activity inhibition assay (HTRF kinase assay)
# RECORDED_CONDITIONS: 40 μM ATP
MEASURED_ENDPOINT: IC50 (nM)
One number for each entry, in nM.

[
  {
    "SMILES_RECORD": "COc1ccc(F)cc1C(=O)NCc1ccc(-c2nc(C34CCC(C(=O)O)(CC3)CC4)n3ncnc(N)c23)cc1",
    "SYSTEM_TESTED": "human-derived recombinant BTK protein (Homo sapiens, UniProt Q06187)",
    "IC50 [nM]": 0.7
  }
]

# IC50 of `COc1ccc(F)cc1C(=O)NCc1ccc(-c2nc(C34CCC(C(=O)N5CCOCC5)(CC3)CC4)n3ncnc(N)c23)cc1` = 1
